Measured IC50 accompanies every entry in the list below.
Biological target: beta-catenin/TCF4 engagement (Homo sapiens)
Construct: expressed in transfected cells; host or cells: HEK293
Sequence (P35222 whole entry): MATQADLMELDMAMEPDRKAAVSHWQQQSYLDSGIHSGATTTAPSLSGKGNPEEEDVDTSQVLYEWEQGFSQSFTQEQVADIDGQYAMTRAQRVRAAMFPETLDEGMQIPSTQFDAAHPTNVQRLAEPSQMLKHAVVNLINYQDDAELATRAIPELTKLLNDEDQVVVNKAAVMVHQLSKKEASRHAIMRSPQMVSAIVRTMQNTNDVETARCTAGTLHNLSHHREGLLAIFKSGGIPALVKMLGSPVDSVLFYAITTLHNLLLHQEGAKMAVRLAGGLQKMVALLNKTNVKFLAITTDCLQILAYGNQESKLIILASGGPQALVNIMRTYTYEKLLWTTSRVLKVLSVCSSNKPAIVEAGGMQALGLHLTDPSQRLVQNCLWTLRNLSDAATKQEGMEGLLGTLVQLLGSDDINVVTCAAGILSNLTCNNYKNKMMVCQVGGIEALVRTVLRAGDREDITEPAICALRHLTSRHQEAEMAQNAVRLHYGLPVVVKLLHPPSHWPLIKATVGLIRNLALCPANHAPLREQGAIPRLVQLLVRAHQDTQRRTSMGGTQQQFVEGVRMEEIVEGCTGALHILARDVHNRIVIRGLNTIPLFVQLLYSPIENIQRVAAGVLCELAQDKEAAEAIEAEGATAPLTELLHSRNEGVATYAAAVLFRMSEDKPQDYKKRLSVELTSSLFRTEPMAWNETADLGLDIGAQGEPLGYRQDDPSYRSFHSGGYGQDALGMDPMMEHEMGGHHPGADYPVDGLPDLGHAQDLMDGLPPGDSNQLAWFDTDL
Assay: Nano-BRET target engagement assay (B-cat-Halo & TCF4-Luc in HEK293 cells)
Format: cell-based
Details: absolute IC50; read-out: NanoBRET Abs IC50
Please reply with the bare figure in µM and do not write the unit itself.

CC(=O)N1CCC[C@]12CC=CCCCC1(CCCC=CCCCOC(=O)N3CC[C@@](C(=O)N[C@@H](Cc4ccsc4)C(=O)N[C@@H](Cc4csc5ccccc45)C(=O)N[C@H](CCC(N)=O)C(N)=O)(C3)NC(=O)[C@H](CC(C)C)NC(=O)[C@H](Cc3ccccc3)NC(=O)[C@H](C)NC(=O)[C@H](C)NC(=O)[C@H](CC(=O)O)NC(=O)[C@H](CC(=O)O)NC1=O)NC(=O)[C@H](CC(C)(C)C)NC(=O)[C@H](CC(=O)O)NC2=O (stereo partly drawn) ... 4.7
COCCC(=O)N1CCC[C@]12CC=CCCCC1(CCCC=CCCCOC(=O)N3CC[C@@](C(=O)N[C@@H](Cc4ccccc4Cl)C(=O)N[C@@H](Cc4csc5ccccc45)C(=O)N[C@@H](C(N)=O)[C@H](C)O)(C3)NC(=O)[C@H](CC(N)=O)NC(=O)[C@H](Cc3ccccc3)NC(=O)[C@H](C)NC(=O)[C@H](C)NC(=O)[C@H](CC(=O)O)NC(=O)[C@H](CC(=O)O)NC1=O)NC(=O)[C@H](CC(C)(C)C)NC(=O)[C@H](CC(=O)O)NC2=O (stereo partly drawn) ... 18.1

IC50 measured on CC(=O)NCCCC[C@@H]1NC(=O)[C@H](Cc2ccccc2)NC(=O)[C@H](C)NC(=O)[C@H](C)NC(=O)[C@H](Cc2cccc(C(=O)O)c2)NC(=O)[C@H](CC(=O)O)NC(=O)C2(CCCC=CCCCOC(=O)N3CC[C@@](C(=O)N[C@@H](Cc4ccccc4C(F)(F)F)C(=O)N[C@@H](Cc4csc5ccccc45)C(=O)N[C@@H](CCC(=O)N4CCOCC4)C(N)=O)(C3)NC1=O)CCCC=CC[C@]1(CCCN1C(C)=O)C(=O)N[C@@H](CC(=O)O)C(=O)N[C@@H](CC(C)(C)C)C(=O)N2 (stereo partly drawn) [I-2549] = 2.5

====

Measured IC50 accompanies every entry in the list below.
Molecular target: full-length beta-Catenin (Uniprot ID P35222) (Homo sapiens, UniProt P35222)
Construct: 10 nM full-length beta-Catenin (Uniprot ID P35222)
Sequence (P35222 whole entry): as above
Test: Fluorescence polarization IC50 (beta-catenin / 5FAM-TCF4 10-53 competition)
Assay type: binding
Settings: fluorescence polarization; read-out: beta-Catenin FP IC50
Please reply with the bare figure in nM and do not write the unit itself.

Below, each entry is followed by its recorded IC50 result.
CC(=O)N1CCC[C@]12CC=CCCCC1(CCCC=CCCCCCC[C@@](C)(C(=O)N[C@@H](Cc3ccsc3)C(=O)N[C@@H](Cc3csc4ccccc34)C(=O)N[C@@H](CCC(N)=O)C(N)=O)NC(=O)[C@H](CC(N)=O)NC(=O)[C@H](Cc3ccccc3)NC(=O)[C@H](C)NC(=O)[C@H](C)NC(=O)[C@H](CN(CCCC(F)(F)F)CC(=O)O)NC(=O)[C@H](CC(=O)O)NC1=O)NC(=O)[C@H](CC(C)(C)C)NC(=O)[C@H](CC(=O)O)NC2=O (stereo partly drawn) [I-1455] ... 13
CC(=O)N1CCC[C@]12CCCCCCC1(CCCCCCCCOC(=O)N3CC[C@@](C(=O)N[C@@H](Cc4ccsc4)C(=O)N[C@@H](Cc4csc5ccccc45)C(=O)N[C@H](C(N)=O)C(C)C)(C3)NC(=O)[C@H]([C@@H](C)O)NC(=O)[C@H](Cc3ccccc3)NC(=O)[C@H](C)NC(=O)[C@H](C)NC(=O)[C@H](CN(CC(=O)O)CC(F)(F)F)NC(=O)[C@H](CC(=O)O)NC1=O)NC(=O)[C@H](CC(C)(C)C)NC(=O)[C@H](CC(=O)O)NC2=O (stereo partly drawn) ... 235
CC(=O)N1CCC[C@]12CC=CCCCC1(CCCC=CCCCOC(=O)N3CC[C@@](C(=O)N[C@@H](Cc4ccsc4)C(=O)N[C@@H](Cc4ccc(F)c(Br)c4)C(=O)N[C@@H](C)C(N)=O)(C3)NC(=O)[C@H](C(C)C)NC(=O)[C@H](Cc3ccccc3)NC(=O)[C@H](C)NC(=O)[C@H](CCC(N)=O)NC(=O)[C@H](Cc3cccc(C(=O)O)c3)NC(=O)[C@H](CC(=O)O)NC1=O)NC(=O)[C@H](CC(C)(C)C)NC(=O)[C@H](CC(=O)O)NC2=O (stereo partly drawn) ... 5
CC(=O)N1CCC[C@]12CC=CCCCC1(CCCC=CCCCOC(=O)N3CC[C@@](C(=O)N[C@@H](Cc4ccccc4Cl)C(=O)N[C@@H](Cc4csc5ccccc45)C(=O)N[C@H](C(N)=O)[C@@H](C)O)(C3)NC(=O)[C@H](CCCCNC(C)C)NC(=O)[C@H](Cc3ccccc3)NC(=O)[C@H](C)NC(=O)[C@H](C)NC(=O)[C@H](CCC(=O)O)NC(=O)[C@H](CC(=O)O)NC1=O)NC(=O)[C@H](CC(C)(C)C)NC(=O)[C@H](CC(=O)O)NC2=O (stereo partly drawn) ... 34
CC(=O)N1CCC[C@]12CC=CCCCC1(CCCC=CCCCCCC[C@@](C)(C(=O)N[C@@H](Cc3ccccc3Cl)C(=O)N[C@@H](Cc3csc4ccccc34)C(=O)N[C@@H](CCC(N)=O)C(N)=O)NC(=O)[C@H](CC(N)=O)NC(=O)[C@H](Cc3ccccc3)NC(=O)[C@H](C)NC(=O)[C@H](C)NC(=O)[C@H](CC(=O)O)NC(=O)[C@H](CC(=O)O)NC1=O)NC(=O)[C@H](CC(C)(C)C)NC(=O)[C@H](CC(=O)O)NC2=O (stereo partly drawn) ... 9

Observed IC50 on full-length beta-Catenin (Uniprot ID P35222) (Homo sapiens, UniProt P35222), entry CC(=O)N1CCC[C@]12CC=CCCCC1(CCCC=CCCCOC(=O)N3CC[C@@](C(=O)N[C@@H](Cc4ccsc4)C(=O)N[C@@H](Cc4csc5ccccc45)C(=O)N[C@@H](CCC(N)=O)C(N)=O)(C3)NC(=O)[C@H](CC(C)C)NC(=O)[C@H](Cc3ccccc3)NC(=O)[C@H](C)NC(=O)[C@H](C)NC(=O)[C@H](CN3CCC[C@H](C(=O)O)C3)NC(=O)[C@H](CC(=O)O)NC1=O)NC(=O)[C@H](CC(C)(C)C)NC(=O)[C@H](CC(=O)O)NC2=O (stereo partly drawn) , equals 22

Observed IC50 on full-length beta-Catenin (Uniprot ID P35222) (Homo sapiens, UniProt P35222), entry CC(=O)N1CCC[C@]12CC=CCCCC1(CCCC=CCCCCCC[C@@](C)(C(=O)N[C@@H](Cc3ccccc3)C(=O)N[C@@H](Cc3csc4ccccc34)C(=O)N[C@@H](CCC(N)=O)C(N)=O)NC(=O)[C@H](CC(N)=O)NC(=O)[C@H](Cc3ccccc3)NC(=O)[C@H](C)NC(=O)[C@H](C)NC(=O)[C@H](CNS(C)(=O)=O)NC(=O)[C@H](CC(=O)O)NC1=O)NC(=O)[C@H](C)NC(=O)[C@H](CC(=O)O)NC2=O (stereo partly drawn) , equals 155

Observed IC50 on full-length beta-Catenin (Uniprot ID P35222) (Homo sapiens, UniProt P35222), entry CCCCCCSSCCOC(=O)C[C@@H]1NC(=O)[C@]2(CC=CCCCC3(CCCC=CCCCOC(=O)N4CC[C@@](C(=O)N[C@@H](Cc5ccsc5)C(=O)N[C@@H](Cc5csc6ccccc56)C(=O)N[C@@H](CCC(N)=O)C(N)=O)(C4)NC(=O)[C@H](CC(C)C)NC(=O)[C@H](Cc4ccccc4)NC(=O)[C@H](C)NC(=O)[C@H](C)NC(=O)[C@H](CC(=O)O)NC(=O)[C@H](CC(=O)O)NC3=O)NC(=O)[C@H](CC(C)(C)C)NC1=O)CCCN2C(C)=O (stereo partly drawn) [I-1959] , equals 412

Observed IC50 on full-length beta-Catenin (Uniprot ID P35222) (Homo sapiens, UniProt P35222), entry CC(=O)N1CCC[C@]12CC=CCCCC1(CCCC=CCCCOC(=O)N3CC[C@@](C(=O)N[C@@H](Cc4ccsc4)C(=O)N[C@@H](Cc4csc5ccccc45)C(=O)N[C@@H](CCC(N)=O)C(N)=O)(C3)NC(=O)[C@H](CCC(=O)N3CCNCC3)NC(=O)[C@H](Cc3ccccc3)NC(=O)[C@H](C)NC(=O)[C@H](C)NC(=O)[C@H](CN(CC(=O)O)CC(F)(F)F)NC(=O)[C@H](CC(=O)O)NC1=O)NC(=O)[C@H](CC(C)(C)C)NC(=O)[C@H](CC(=O)O)NC2=O (stereo partly drawn) , equals 6
